- system.name: AMPKα1β1γ1 (Homo sapiens, UniProt P54619+Q13131+Q9Y478)
- Construct: made in house; host or cells: HEK293 (transient transfection, anti-FLAG immunoprecipitate)
- Sequence (Q13131 whole entry): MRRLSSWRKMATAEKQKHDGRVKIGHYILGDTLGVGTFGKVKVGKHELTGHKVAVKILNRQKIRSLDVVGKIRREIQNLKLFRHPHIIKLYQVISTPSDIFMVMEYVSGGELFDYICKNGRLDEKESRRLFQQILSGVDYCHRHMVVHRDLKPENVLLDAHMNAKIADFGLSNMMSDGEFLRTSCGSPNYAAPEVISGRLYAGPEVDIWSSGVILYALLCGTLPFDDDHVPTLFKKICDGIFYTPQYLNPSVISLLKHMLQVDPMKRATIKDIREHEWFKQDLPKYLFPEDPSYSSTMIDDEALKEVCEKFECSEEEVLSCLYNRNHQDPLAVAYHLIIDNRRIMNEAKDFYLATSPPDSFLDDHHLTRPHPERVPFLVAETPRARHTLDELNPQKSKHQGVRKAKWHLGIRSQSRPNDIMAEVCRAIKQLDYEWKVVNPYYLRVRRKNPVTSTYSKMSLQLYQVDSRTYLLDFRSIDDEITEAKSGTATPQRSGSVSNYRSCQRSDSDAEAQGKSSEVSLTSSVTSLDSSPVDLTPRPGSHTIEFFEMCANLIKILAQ
- Sequence (Q9Y478 whole entry partner): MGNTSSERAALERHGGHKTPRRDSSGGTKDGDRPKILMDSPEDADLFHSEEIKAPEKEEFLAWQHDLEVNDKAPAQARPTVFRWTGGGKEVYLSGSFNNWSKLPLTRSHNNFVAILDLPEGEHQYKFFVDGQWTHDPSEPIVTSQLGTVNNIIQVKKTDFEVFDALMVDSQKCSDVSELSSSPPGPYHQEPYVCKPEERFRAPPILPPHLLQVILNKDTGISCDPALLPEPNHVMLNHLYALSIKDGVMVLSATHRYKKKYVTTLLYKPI
- Sequence (P54619 whole entry partner): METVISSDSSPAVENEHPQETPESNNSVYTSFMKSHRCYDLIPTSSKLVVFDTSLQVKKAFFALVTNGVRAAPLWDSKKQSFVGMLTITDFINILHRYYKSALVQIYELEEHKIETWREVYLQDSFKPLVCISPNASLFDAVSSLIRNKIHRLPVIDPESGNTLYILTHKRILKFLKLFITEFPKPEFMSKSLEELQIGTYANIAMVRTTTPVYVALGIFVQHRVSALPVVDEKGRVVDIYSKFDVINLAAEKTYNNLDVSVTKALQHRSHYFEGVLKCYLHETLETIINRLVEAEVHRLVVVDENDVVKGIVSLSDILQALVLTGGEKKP
- protocol: Cell-free AMPK kinase assay (SAMS peptide)
- Assay type: biochemical
- reported.conditions: 20 μM ATP
assay.endpoint: IC50 (nM)

{"columns": ["query.smiles", "assay.endpoint", "value.observed"],
 "data": [
  ["CCc1ccccc1C(=O)Nc1n[nH]c2c(C)c(F)c(C3C(C#N)=C(C)N(C)C(C)=C3C#N)cc12", "IC50", 1.8]
]}

----------
- Test system: pSer79-ACC1 in U2OS cells
- protocol: HTRF assay of Ser79-ACC1 phosphorylation in U2OS cells
- Format: cell-based, human
- reported.conditions: Homo sapiens, U2OS, without MK-8722
pIC50: −log10 of the molar value.

{"columns": ["compound", "system.name", "pIC50"],
 "data": [
  ["CCc1ccccc1C(=O)Nc1n[nH]c2c(C)c(F)c(C3C(C#N)=C(C)N(C)C(C)=C3C#N)cc12 [BAY-3827]", "pSer79-ACC1 in U2OS cells", 6.03]
]}
